target: T1, human Fibroblast Activation Protein (FAP), soluble antigen (human, UniProt Q12884 26-760, biotinylated when immobilized on streptavidin sensors); experiment: BLI per 6.1.3
T1 construct: also called hFAP; biotinylated FAP
T1 sequence (Q12884 26-760 limits assumed): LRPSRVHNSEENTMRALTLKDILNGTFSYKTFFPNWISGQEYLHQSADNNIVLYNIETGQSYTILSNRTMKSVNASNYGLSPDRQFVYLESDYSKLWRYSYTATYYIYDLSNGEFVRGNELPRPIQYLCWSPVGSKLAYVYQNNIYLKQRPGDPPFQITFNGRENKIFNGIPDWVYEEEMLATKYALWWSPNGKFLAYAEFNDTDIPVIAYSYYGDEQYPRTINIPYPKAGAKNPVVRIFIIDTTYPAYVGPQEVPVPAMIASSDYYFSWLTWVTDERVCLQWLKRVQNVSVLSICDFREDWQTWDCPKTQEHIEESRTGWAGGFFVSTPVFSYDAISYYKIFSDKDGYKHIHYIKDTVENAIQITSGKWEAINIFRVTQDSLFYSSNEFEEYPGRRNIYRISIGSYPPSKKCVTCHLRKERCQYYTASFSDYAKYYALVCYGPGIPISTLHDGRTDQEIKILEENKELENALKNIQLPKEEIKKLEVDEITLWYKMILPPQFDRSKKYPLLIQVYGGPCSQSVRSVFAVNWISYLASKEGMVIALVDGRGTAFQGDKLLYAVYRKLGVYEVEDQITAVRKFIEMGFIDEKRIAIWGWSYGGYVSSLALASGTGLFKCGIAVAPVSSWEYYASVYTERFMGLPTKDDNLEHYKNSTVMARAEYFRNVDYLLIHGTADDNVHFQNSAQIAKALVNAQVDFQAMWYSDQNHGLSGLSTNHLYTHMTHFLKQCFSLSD
Assay metric: Kd (nM)
Hi! Could you send only the number? It should be in nM, unit omitted.

Quick one: Kd for D029 HV3LV4 (bispecific antibody, V domains shown, also called D029-Rev1:Q27G:P94Y/S55L:T30R:S32F) VH: EVQLVESGGGLVQPGGSLRLSCAASGFTFRWFFMSWVRQAPGKGLEWVSWIGPSGLYTDYADSVKGRFTISRDNSKNTLYLQMNSLRAEDTAVYYCARSQYGRYYSPDYYFDYWGQGTLVTVSS VL: DIQMTQSPSSLSASVGDRVTITCRASGALGFYLNWYQQKPGKAPKLLIYAASSLSSGVPSRFSGSGSGTDFTLTISSLQPEDFATYYCQQGRTYPLTFGQGTKVEIKR ?
1.8

Sourced from patent US20240358849A1
